ASSAYED_SYSTEM: Bromodomain-containing protein 4 (Homo sapiens)
METHOD_NOTES: Inhibition of C-terminal His6-tagged BRD4 BD2 (unknown origin) using H-YSGRGK(Ac)GGK(Ac)GLGK(Ac)-GGAK(Ac)RHRK-Biotin-OH as substrate incubated for 1 hrs by HTRF assay
ENDPOINT: IC50 (nM)
Numeric answer only, unit nM assumed.

Illustrative cases are given below, each with its answer.
SMILES_REPRESENTATION: CCS(=O)(=O)Nc1ccc(Oc2c(C)cccc2C)c(-c2cn(C)c(=O)c3cc(-c4cc(C)c(OCCO)c(C)c4)oc23)c1
ASSAYED_SYSTEM: Bromodomain-containing protein 4 (Homo sapiens)
READOUT_UNITS: nM
ENDPOINT_RESULT: 1.3
--
SMILES_REPRESENTATION: Cc1cc(-c2cc3c(=O)n(C)cc(-c4cc(NS(=O)(=O)C(C)C)ccc4Oc4ccc(F)cc4F)c3o2)cc(C)c1OCCO
ASSAYED_SYSTEM: Bromodomain-containing protein 4 (Homo sapiens)
READOUT_UNITS: nM
ENDPOINT_RESULT: 0.94
--
SMILES_REPRESENTATION: CC(=O)Nc1ccc(Oc2ccc(F)cc2F)c(-c2cn(C)c(=O)c3cc(-c4cc(C)c(OCCO)c(C)c4)oc23)c1
ASSAYED_SYSTEM: Bromodomain-containing protein 4 (Homo sapiens)
READOUT_UNITS: nM
ENDPOINT_RESULT: 0.83
--
SMILES_REPRESENTATION: Cc1cc(F)cc(C)c1Oc1ccc(C(C)(C)O)cc1-c1cn(C)c(=O)c2cc(-c3cnc(C4CC4)[nH]3)oc12
ASSAYED_SYSTEM: Bromodomain-containing protein 4 (Homo sapiens)
READOUT_UNITS: nM
ENDPOINT_RESULT: 0.59

Then this compound:
Q. Give the reported IC50 for this compound. CCS(=O)(=O)Nc1ccc(Oc2ccc(F)cc2F)c(-c2cn(C)c(=O)c3cc(-c4ccccc4)oc23)c1
A. 1.5
